Kindly state IC50 for each of the entries shown.
# subject of test: Sialidase-1 (Homo sapiens)
# assay details: Inhibition of human NEU1 expressed in HEK293 cells
Output should be the measured figure followed by the unit it is expressed in.

Q: I'd like to know its IC50. The compound in question is CCCC(=O)NC[C@H](O)[C@H](O)[C@@H]1OC(C(=O)O)=C[C@H](O)[C@H]1NC(C)=O
Ans: 32 µM

Q: Would you mind telling me what IC50 value was observed for CC(=O)N[C@H]1[C@H]([C@@H](O)[C@@H](O)CNC(=O)C2CC2)OC(C(=O)O)=C[C@@H]1O ?
Ans: 680 µM

Q: I'd like to know its IC50. The compound in question is CC(=O)N[C@H]1[C@H]([C@@H](O)[C@@H](O)CNC(=O)c2ccccc2)OC(C(=O)O)=C[C@@H]1O
Ans: 13 µM

Q: Bench note: what IC50 did CC(=O)N[C@H]1[C@H]([C@@H](O)[C@@H](O)CNC(=O)CC(C)C)OC(C(=O)O)=C[C@@H]1O show?
Ans: 565 µM
